System: 935938-334-R-J1-PDC complex spheroid viability
assay info: Anticancer human tumor 935938-334-R-J1-PDC patient-derived small intestine adenocarcinoma cell line growth inhibition [POLQ]
experimental context: second compound 0.316 µM; first compound 0.316 µM; stronger effect = lower value
Give viability, T/C for every item shown.
Use % as the unit, but write only the number.

Give the measured viability, T/C of O=C(Nc1ccc(O)c(NS(=O)(=O)c2ccc(F)cc2)c1)c1ccc(-c2ccccc2)cc1 + COC1C(OC(N)=O)C(O)C(Oc2ccc3c(O)c(NC(=O)c4ccc(O)c(CC=C(C)C)c4)c(=O)oc3c2C)OC1(C)C .
102

Check COc1cccc2c1C(=O)c1c(O)c3c(c(O)c1C2=O)CC(O)(C(=O)CO)CC3OC1CC(N)C(O)C(C)O1 (stereo not given) + Nc1ccc(C#CCN(C(=O)Cc2ncc(C(F)(F)F)cc2C(F)(F)F)c2ccc(F)cc2)nn1 too.
30.9

Next molecule up: COc1cc(C2c3cc4c(cc3C(OC3OC5COC(C)OC5C(O)C3O)C3COC(=O)C23)OCO4)cc(OC)c1O (stereo not given) + Nc1ccc(C#CCN(C(=O)Cc2ncc(C(F)(F)F)cc2C(F)(F)F)c2ccc(F)cc2)nn1
69.1

Further, for COc1cc2cc(C(=O)CCC(=O)O)sc2cc1OC + Nc1ccc(C#CCN(C(=O)Cc2ncc(C(F)(F)F)cc2C(F)(F)F)c2ccc(F)cc2)nn1 ?
89.5

Input CNCc1ccc(-c2[nH]c3cc(F)cc4c3c2CCNC4=O)cc1 + Cc1cccc(N(C)C(=O)C2C(O)CCN2c2nc(C)cc(C(F)(F)F)c2C#N)c1
97.2

* * *

Test system: 935938-334-R-J1-PDC complex spheroid viability
assay info: Anticancer human tumor 935938-334-R-J1-PDC cell line growth inhibition [POLQ];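 also: spheroids exposed to drugs for seven days before viability read; 100% = DMSO vehicle control wells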
experimental context: second compound 1 µM; first compound 3.16 µM; stronger effect = lower value
experimental readout: viability, T/C (%)
Please give a number only; it is taken to be in %.

Give the measured viability, T/C of C#Cc1c(F)ccc2cc(O)cc(-c3ncc4c(N5CC6CCC(C5)N6)nc(OCC56CCCN5CC(F)C6)nc4c3F)c12 (stereo not given) + COC1C(OC(N)=O)C(O)C(Oc2ccc3c(O)c(NC(=O)c4ccc(O)c(CC=C(C)C)c4)c(=O)oc3c2C)OC1(C)C .
42

Please do the same for CCCS(=O)(=O)Nc1ccc(F)c(C(=O)c2c[nH]c3ncc(-c4ccc(Cl)cc4)cc23)c1F + Cc1cccc(N(C)C(=O)C2C(O)CCN2c2nc(C)cc(C(F)(F)F)c2C#N)c1 as well.
131

Same thing, different compound: O=C(c1cc(Cc2n[nH]c(=O)c3ccccc23)ccc1F)N1CCN(C(=O)C2CC2)CC1 + Cc1cccc(N(C)C(=O)C2C(O)CCN2c2nc(C)cc(C(F)(F)F)c2C#N)c1
78.1

Also CC1COCCN1c1cc(C2(O)CC3CCC(C2)O3)c2cnn(-c3ccn[nH]3)c2n1 (stereo not given) + COC1C(OC(N)=O)C(O)C(Oc2ccc3c(O)c(NC(=O)c4ccc(O)c(CC=C(C)C)c4)c(=O)oc3c2C)OC1(C)C ?
13.5

Input CCc1cc2c(N3CCc4c(cc(Cn5ccnc5)cc4-c4cn(C)nc4C(F)(F)F)C3=O)ccnc2c(OC)n1 + COC1C(OC(N)=O)C(O)C(Oc2ccc3c(O)c(NC(=O)c4ccc(O)c(CC=C(C)C)c4)c(=O)oc3c2C)OC1(C)C
87.5
